Target: T1, human beta-Klotho (human, UniProt Q86Z14 1-1044)
T1 sequence (looked up): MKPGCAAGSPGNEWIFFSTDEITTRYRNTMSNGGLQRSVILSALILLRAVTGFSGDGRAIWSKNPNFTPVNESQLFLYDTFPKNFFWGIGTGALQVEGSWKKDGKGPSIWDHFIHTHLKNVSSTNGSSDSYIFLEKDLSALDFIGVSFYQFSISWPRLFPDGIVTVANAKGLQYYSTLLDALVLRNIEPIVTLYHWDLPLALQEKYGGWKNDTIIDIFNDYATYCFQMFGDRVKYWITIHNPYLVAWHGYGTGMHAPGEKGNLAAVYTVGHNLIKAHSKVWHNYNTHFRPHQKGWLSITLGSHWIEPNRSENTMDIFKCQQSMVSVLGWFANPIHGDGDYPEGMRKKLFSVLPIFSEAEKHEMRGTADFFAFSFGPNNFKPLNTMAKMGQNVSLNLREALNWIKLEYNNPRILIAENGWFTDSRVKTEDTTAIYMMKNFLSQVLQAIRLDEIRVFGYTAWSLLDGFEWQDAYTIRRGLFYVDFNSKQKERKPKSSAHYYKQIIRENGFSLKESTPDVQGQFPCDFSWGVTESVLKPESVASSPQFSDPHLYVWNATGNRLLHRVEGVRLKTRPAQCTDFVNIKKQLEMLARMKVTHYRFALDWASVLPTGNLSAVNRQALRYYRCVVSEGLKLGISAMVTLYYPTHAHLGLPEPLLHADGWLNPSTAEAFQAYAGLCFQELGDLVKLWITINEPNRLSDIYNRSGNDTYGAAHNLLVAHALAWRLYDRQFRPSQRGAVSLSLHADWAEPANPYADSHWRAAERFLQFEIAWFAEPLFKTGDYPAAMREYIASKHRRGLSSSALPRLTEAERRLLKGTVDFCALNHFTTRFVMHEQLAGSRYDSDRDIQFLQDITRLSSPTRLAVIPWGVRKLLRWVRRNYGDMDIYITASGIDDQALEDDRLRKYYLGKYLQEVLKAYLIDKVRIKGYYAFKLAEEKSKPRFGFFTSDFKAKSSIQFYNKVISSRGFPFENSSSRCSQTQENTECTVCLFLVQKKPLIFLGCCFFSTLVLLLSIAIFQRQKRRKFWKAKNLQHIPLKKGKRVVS
Test: cell-based or functional assay
Task for the reader: assign each of the following binders its reported pERK-HEK293-Beta-klotho without HSA [EC50 (nM)] Median Value.
Lab note: write values as number then unit, every time.

Past entries and their recorded results:
binder	experimental.result
(Q28R, K56R, K59R, K69R, D102T, N121Q, K122R, L166F, S167G, M168L, G170T) Gly-FGF21 (ligand) GHPIPDSSPLLQFGGQVRQRYLYTDDAQRTEAHLEIREDGTVGGAADQSPESLLQLRALRPGVIQILGVRTSRFLCQRPDGALYGSLHFDPEACSFRELLLETGYNVYQSEAHGLPLHLPGQRSPHRDPAPRGPARFLPLPGLPPALPEPPGILAPQPPDVGSSDPFGLVTPSQGRSPSYAS	1 nM
D102T Met-FGF21 (ligand) MHPIPDSSPLLQFGGQVRQRYLYTDDAQQTEAHLEIREDGTVGGAADQSPESLLQLKALKPGVIQILGVKTSRFLCQRPDGALYGSLHFDPEACSFRELLLETGYNVYQSEAHGLPLHLPGNKSPHRDPAPRGPARFLPLPGLPPALPEPPGILAPQPPDVGSSDPLSMVGPSQGRSPSYAS	1.7 nM

For (-1G, 71C, 121Q, 166F, 167G, 168L, 169aT, 171L, 172E, 173A, 174V, 179F, 180E, 181K) FGF21 derivative of Example 16 (ligand, S-71-({2-[2-(2-{2-[2-(2-{2-[(S)-4-carboxy-4-(17-carboxy-heptadecanoylamino)-butyrylamino]-ethoxy}-ethoxy)-acetylamino]-ethoxy}-ethoxy)-acetylamino]-ethylcarbamoyl}-methyl) on the thiol of Cys71) GHPIPDSSPLLQFGGQVRQRYLYTDDAQQTEAHLEIREDGTVGGAADQSPESLLQLKALKPGVIQILGVKTCRFLCQRPDGALYGSLHFDPEACSFRELLLEDGYNVYQSEAHGLPLHLPGQKSPHRDPAPRGPARFLPLPGLPPALPEPPGILAPQPPDVGSSDPFGLVTGLEAVRSPSFEK the binder record lists pERK-HEK293-Beta-klotho without HSA [EC50 (nM)] Median Value as 1.4 nM
